# Assay Procedure: Plasma pharmacokinetics of BI 187004 after single oral doses (LC–MS/MS)
# Test Conditions: male, human, plasma, po, 80 mg, BI 187004 plasma concentrations, 80 mg single oral, planned time 72 h, gMean
Assay Readout: concentration at 72 h (nM)
Write the number in nM without appending the unit.

stdin: Which value of concentration at 72 h has been reported for `N#Cc1ccc2c(c1)[C@H]1CCCN(C(=O)c3ccc4[nH]cnc4c3)[C@H]1C2` in the records?
stdout: 74.2

###

# Assay Procedure: Plasma pharmacokinetics of BI 187004 after single oral doses (LC–MS/MS)
# Test Conditions: male, human, plasma, po, 240 mg
Assay Readout: Cmax (µM)
Write the number in µM without appending the unit.

stdin: Which value of Cmax has been reported for N#Cc1ccc2c(c1)[C@H]1CCCN(C(=O)c3ccc4[nH]cnc4c3)[C@H]1C2 [BI 187004] in the records?
stdout: 7.12

###

# Assay Procedure: Plasma pharmacokinetics of BI 187004 after single oral doses (LC–MS/MS)
# Test Conditions: male, human, plasma, po, 80 mg, BI 187004 plasma concentrations, 80 mg single oral, planned time 2.5 h, gMean
Assay Readout: concentration at 2.5 h (nM)
Write the number in nM without appending the unit.

stdin: Which value of concentration at 2.5 h has been reported for N#Cc1ccc2c(c1)[C@H]1CCCN(C(=O)c3ccc4[nH]cnc4c3)[C@H]1C2 [BI 187004] in the records?
stdout: 2200

###

# Assay Procedure: Plasma pharmacokinetics of BI 187004 after single oral doses (LC–MS/MS)
# Test Conditions: male, human, plasma, po, 20 mg, BI 187004 plasma concentrations, 20 mg single oral, planned time 4 h, individual subjects
Assay Readout: concentration at 4 h (nM)
Write the number in nM without appending the unit.

stdin: Which value of concentration at 4 h has been reported for N#Cc1ccc2c(c1)[C@H]1CCCN(C(=O)c3ccc4[nH]cnc4c3)[C@H]1C2 [BI 187004] in the records?
stdout: 896

###

# Assay Procedure: Plasma pharmacokinetics of BI 187004 after single oral doses (LC–MS/MS)
# Test Conditions: male, human, plasma, po, 240 mg, BI 187004 plasma concentrations, gMean, 240 mg single oral, planned time 6 h
Assay Readout: concentration at 6 h
Please answer using the number first and the unit second.

stdin: Which value of concentration at 6 h has been reported for N#Cc1ccc2c(c1)[C@H]1CCCN(C(=O)c3ccc4[nH]cnc4c3)[C@H]1C2 [BI 187004] in the records?
stdout: 3.28 µM

###

# Assay Procedure: Plasma pharmacokinetics of BI 187004 after single oral doses (LC–MS/MS)
# Test Conditions: male, human, plasma, po, 40 mg, BI 187004 plasma concentrations, 40 mg single oral, planned time 2.5 h, individual subjects
Assay Readout: concentration at 2.5 h (µM)
Write the number in µM without appending the unit.

stdin: Which value of concentration at 2.5 h has been reported for `N#Cc1ccc2c(c1)[C@H]1CCCN(C(=O)c3ccc4[nH]cnc4c3)[C@H]1C2` in the records?
stdout: 2.18

###

# Assay Procedure: Plasma pharmacokinetics of BI 187004 after single oral doses (LC–MS/MS)
# Test Conditions: male, human, plasma, po, 2.5 mg, Plasma concentration Median, 2.5 mg single oral; 1.5 h
Assay Readout: concentration at 1.5 h (nM)
Write the number in nM without appending the unit.

stdin: Which value of concentration at 1.5 h has been reported for `N#Cc1ccc2c(c1)[C@H]1CCCN(C(=O)c3ccc4[nH]cnc4c3)[C@H]1C2` in the records?
stdout: 12.1

###

# Assay Procedure: Plasma pharmacokinetics of BI 187004 after single oral doses (LC–MS/MS)
# Test Conditions: male, human, plasma, po, 160 mg, BI 187004 plasma concentrations, 160 mg single oral, planned time 2 h, Median
Assay Readout: concentration at 2 h

stdin: Which value of concentration at 2 h has been reported for `N#Cc1ccc2c(c1)[C@H]1CCCN(C(=O)c3ccc4[nH]cnc4c3)[C@H]1C2` in the records?
stdout: 6.79 µM

###

# Assay Procedure: Plasma pharmacokinetics of BI 187004 after single oral doses (LC–MS/MS)
# Test Conditions: male, human, plasma, po, 360 mg, BI 187004 plasma concentrations, Mean, 360 mg single oral, planned time 4 h
Assay Readout: concentration at 4 h
Please answer using the number first and the unit second.

stdin: Which value of concentration at 4 h has been reported for `N#Cc1ccc2c(c1)[C@H]1CCCN(C(=O)c3ccc4[nH]cnc4c3)[C@H]1C2` in the records?
stdout: 9.59 µM

###

# Assay Procedure: Plasma pharmacokinetics of BI 187004 after single oral doses (LC–MS/MS)
# Test Conditions: male, human, plasma, po, 240 mg, BI 187004 plasma concentrations, Max, 240 mg single oral, planned time 6 h
Assay Readout: concentration at 6 h (µM)
Write the number in µM without appending the unit.

stdin: Which value of concentration at 6 h has been reported for `N#Cc1ccc2c(c1)[C@H]1CCCN(C(=O)c3ccc4[nH]cnc4c3)[C@H]1C2` in the records?
stdout: 6.37

###

# Assay Procedure: Plasma pharmacokinetics of BI 187004 after single oral doses (LC–MS/MS)
# Test Conditions: male, human, plasma, po, 20 mg, BI 187004 plasma concentrations, 20 mg single oral, planned time 48 h, Min
Assay Readout: concentration at 48 h (nM)
Write the number in nM without appending the unit.

stdin: Which value of concentration at 48 h has been reported for N#Cc1ccc2c(c1)[C@H]1CCCN(C(=O)c3ccc4[nH]cnc4c3)[C@H]1C2 [BI 187004] in the records?
stdout: 15.8

###

# Assay Procedure: Plasma pharmacokinetics of BI 187004 after single oral doses (LC–MS/MS)
# Test Conditions: male, human, plasma, po, 20 mg, BI 187004 plasma concentrations, 20 mg single oral, planned time 1.5 h, individual subjects
Assay Readout: concentration at 1.5 h (nM)
Write the number in nM without appending the unit.

stdin: Which value of concentration at 1.5 h has been reported for `N#Cc1ccc2c(c1)[C@H]1CCCN(C(=O)c3ccc4[nH]cnc4c3)[C@H]1C2` in the records?
stdout: 1210

###

# Assay Procedure: Plasma pharmacokinetics of BI 187004 after single oral doses (LC–MS/MS)
# Test Conditions: male, human, plasma, po, 360 mg, BI 187004 plasma concentrations, Median, 360 mg single oral, planned time 2 h
Assay Readout: concentration at 2 h (µM)
Write the number in µM without appending the unit.

stdin: Which value of concentration at 2 h has been reported for N#Cc1ccc2c(c1)[C@H]1CCCN(C(=O)c3ccc4[nH]cnc4c3)[C@H]1C2 [BI 187004] in the records?
stdout: 10.8

###

# Assay Procedure: Plasma pharmacokinetics of BI 187004 after single oral doses (LC–MS/MS)
# Test Conditions: male, human, plasma, po, 80 mg
Assay Readout: AUC(0-inf) (µM·h)
Write the number in µM·h without appending the unit.

stdin: Which value of AUC(0-inf) has been reported for `N#Cc1ccc2c(c1)[C@H]1CCCN(C(=O)c3ccc4[nH]cnc4c3)[C@H]1C2` in the records?
stdout: 51.1

###

# Assay Procedure: Plasma pharmacokinetics of BI 187004 after single oral doses (LC–MS/MS)
# Test Conditions: male, human, plasma, po, 160 mg, BI 187004 plasma concentrations, 160 mg single oral, planned time 10 h, Median
Assay Readout: concentration at 10 h (µM)
Write the number in µM without appending the unit.

stdin: Which value of concentration at 10 h has been reported for N#Cc1ccc2c(c1)[C@H]1CCCN(C(=O)c3ccc4[nH]cnc4c3)[C@H]1C2 [BI 187004] in the records?
stdout: 3.04

###

# Assay Procedure: Plasma pharmacokinetics of BI 187004 after single oral doses (LC–MS/MS)
# Test Conditions: male, human, plasma, po, 360 mg, BI 187004 plasma concentrations, Max, 360 mg single oral, planned time 6 h
Assay Readout: concentration at 6 h (µM)
Write the number in µM without appending the unit.

stdin: Which value of concentration at 6 h has been reported for N#Cc1ccc2c(c1)[C@H]1CCCN(C(=O)c3ccc4[nH]cnc4c3)[C@H]1C2 [BI 187004] in the records?
stdout: 10.2

###

# Assay Procedure: Plasma pharmacokinetics of BI 187004 after single oral doses (LC–MS/MS)
# Test Conditions: male, human, plasma, po, 10 mg, Plasma concentration, individual subjects, 10 mg single oral; planned time 1 h
Assay Readout: concentration at 1 h (nM)
Write the number in nM without appending the unit.

stdin: Which value of concentration at 1 h has been reported for N#Cc1ccc2c(c1)[C@H]1CCCN(C(=O)c3ccc4[nH]cnc4c3)[C@H]1C2 [BI 187004] in the records?
stdout: 519

###

# Assay Procedure: Plasma pharmacokinetics of BI 187004 after single oral doses (LC–MS/MS)
# Test Conditions: male, human, plasma, po, 360 mg, BI 187004 plasma concentrations, 360 mg single oral, planned time 8 h, individual subjects
Assay Readout: concentration at 8 h (µM)
Write the number in µM without appending the unit.

stdin: Which value of concentration at 8 h has been reported for N#Cc1ccc2c(c1)[C@H]1CCCN(C(=O)c3ccc4[nH]cnc4c3)[C@H]1C2 [BI 187004] in the records?
stdout: 9.51
